Data credit: PubChem BioAssay (NCI)

Tested on: HT29 colon
Assay Summary: NCI tumour cell line growth inhibition, 48 h
Can you tell me TGI for the items I'm about to list?

Please review the following examples before continuing.
Molecule | Measure | Test Result
CNC(=O)c1cccc(C#Cc2cncnc2Nc2ccc(OCc3cccc(F)c3)c(Cl)c2)c1 | TGI | > 25 µM
O=C1C(=O)N(c2ccc(Cl)cc2)C(=O)C(=Nc2cccc3c(=O)[nH][nH]c(=O)c23)C1c1nc2ccccc2o1 (centres undefined) | TGI | > 100 µM
O=S(=O)(NCCCNc1cc(-c2cn(-c3ccccc3)nc2-c2cccc(O)c2)ccn1)c1ccc(Br)cc1 | TGI | 2.35 µM
O=C(O)Cc1ccc(N=Nc2c(O)c(C(=O)O)cc3ccccc23)cc1 | TGI | > 100 µM
O=C([CH-]C(=O)c1ccccc1)c1ccccc1.O=C([CH-]C(=O)c1ccccc1)c1ccccc1.O=C([CH-]C(=O)c1ccccc1)c1ccccc1.[Cl-].[Hf+4] | TGI | > 100 µM

Items follow; give TGI for each.
1. O=C1CC(CC(OCc2ccccc2)C(OCc2ccccc2)C(COCc2ccccc2)OCc2ccccc2)CC(=O)N1 (centres undefined)
2. CC(=O)OCC1OC(n2ncc(=O)[nH]c2=O)C(OC(C)=O)C1OC(C)=O (centres undefined)
3. COC(=O)CNc1nc(N(C)O)nc(N(C)O)n1
4. Cc1ccc(C(=O)Nc2ncn(C3CC(O)C(CO)O3)c(=O)n2)cc1 (centres undefined)

# output
18 µM
> 100 µM
> 100 µM
> 100 µM

---

Can you tell me TGI for the items I'm about to list?
System: LOX IMVI melanoma
Assay Summary: NCI tumour cell line growth inhibition, 48 h
Where a SMILES comes first, the peptide text is derived from it.

Please review the following examples before continuing.
Molecule | TGI
CCOc1cccc(-c2cc(=O)c3cc4c(cc3[nH]2)OCO4)c1 | > 100 µM
Nc1nn(C(=O)Nc2c(F)cccc2F)c2ccccc12 | > 100 µM
CCC(C)C(NC(=O)C(CC(C)C)NC(=O)CNC(=O)C(NC(=O)C1CCCN1C(=O)C(CC(C)C)NC(=O)C(N)Cc1ccccc1)C(C)CC)C(=O)NC(CC(C)C)C(N)=O (stereo not given) (H-FLPIGLIL-NH2; configuration not given here) | > 75 µM
Cc1cc(S(=O)(=O)NC(=NCCc2ccccc2)NN)c(S)cc1Cl | > 100 µM
COc1cc(/C=C/C(=O)c2c(-c3ccc(F)cc3)nc3sc(C)nn23)cc(OC)c1OC | 3.52 µM
CCCC[C@H]1C(=O)O[C@H](C)[C@H](NC(=O)c2cccc(NC=O)c2OC)C(=O)O[C@@H](C)[C@@H]1OC(=O)CC(C)C (tested in a mixture with another compound) | 23.2 µM
NC(N)=NS(=O)(=O)c1ccc(NC(=O)c2cccc3c(N)c4ccccc4nc23)cc1 | > 100 µM
CCCN(CCC)c1ccc(C=O)c(C)c1 | > 100 µM
CC(C)Cn1cnc2c(Cl)nc3ccccc3c21 | > 100 µM

Now turn to the next molecule.
# input Look up TGI with LOX IMVI melanoma for this molecule: O=C(NC(Cc1ccc(Cl)cc1)C(=O)O)c1ccc(I)cc1 (stereo not given)
# output > 100 µM

---

Tested on: ACHN renal
Assay Summary: NCI tumour cell line growth inhibition, 48 h
Measure: TGI

Compound | TGI
CN(C)CC1CCC/C(=C\c2ccccc2)C1=O (stereo not given) | 12.6 µM
CN(C)c1ccccc1[CH2][Ga]([Cl])[CH2]c1ccccc1N(C)C | 3.12 µM
CCNc1nnc(-c2ccccc2Nc2ccccc2-c2nnc(NCC)s2)s1 | 31 µM
NC(N)=NS(=O)(=O)c1ccc(NC(=O)c2cccc3c(N)c4ccccc4nc23)cc1 | > 100 µM
CCOc1cccc(-c2cc(=O)c3cc4c(cc3[nH]2)OCO4)c1 | > 62.3 µM
O=S(=O)(c1cc(Cl)ccc1Cl)N1CCN(c2cccc(Cl)c2)CC1 | > 100 µM
CCC1CCC2c3c([nH]c4ccc(C)cc34)C3C(=O)N(N(C)C)C(=O)C3C2C1 (stereo not given) | > 100 µM
Cc1[nH]nc2ncc(C(=O)N3CCC[C@H]3c3ccc(Cl)cc3)cc12 | > 100 µM
CC(=O)n1[nH]c(=O)n(-c2ccccc2)c1=O | > 100 µM
C=CC(=O)N1CC[C@H](n2nc(C#Cc3cc(OC)cc(OC)c3)c3c(N)ncnc32)C1 | > 100 µM

Items follow; give TGI for each.
1. O=c1[nH]c2c(c(=O)[nH]1)C(c1ccc([N+](=O)[O-])cc1)c1c([nH]c(=O)[nH]c1=O)O2
2. CC(=O)Oc1ccc2cc(-c3ccc(OC(C)=O)c(OC(C)=O)c3)c(=O)oc2c1
3. O=C(O)Cc1ccc(N=Nc2c(O)c(C(=O)O)cc3ccccc23)cc1

# output
["> 100 µM", "> 100 µM", "> 100 µM"]

Items follow; give TGI for each.
1. Cc1cccc(C)c1N=Nc1ccc(O)c(CN(C)C)c1
2. O=C1c2c(Cl)c(Cl)c(Cl)c(Cl)c2C(=O)C2(Cl)CC=CCC12Cl (stereo not given)

# output
["> 100 µM", "3.37 µM"]

Items follow; give TGI for each.
1. N=C(N)c1ccc(N=Nc2c(O)ccc3cc4c(N=Nc5ccc(C(=N)N)cc5)c(O)ccc4cc23)cc1
2. CC(C)OP(=O)(OC(C)C)C(=NCCN=C(NNc1ccccc1[N+](=O)[O-])P(=O)(OC(C)C)OC(C)C)NNc1ccccc1[N+](=O)[O-]
3. Cc1ccc(-c2nnc3s/c(=C\c4ccc(N(C)C)cc4)c(=O)n23)cc1
4. COc1ccc(-c2cn(-c3cc(OC)c(OC)c(OC)c3)c(=O)[nH]2)cc1OC
5. NC(=O)CCSC(CC(=O)c1ccc(Cl)cc1)c1ccc(Cl)cc1 (stereo not given)

# output
1. > 100 µM
2. > 100 µM
3. > 100 µM
4. > 100 µM
5. > 100 µM
